Please go through the items and note down their IC50.
Biological target: UniProt P29375
Sequence (P29375 whole entry): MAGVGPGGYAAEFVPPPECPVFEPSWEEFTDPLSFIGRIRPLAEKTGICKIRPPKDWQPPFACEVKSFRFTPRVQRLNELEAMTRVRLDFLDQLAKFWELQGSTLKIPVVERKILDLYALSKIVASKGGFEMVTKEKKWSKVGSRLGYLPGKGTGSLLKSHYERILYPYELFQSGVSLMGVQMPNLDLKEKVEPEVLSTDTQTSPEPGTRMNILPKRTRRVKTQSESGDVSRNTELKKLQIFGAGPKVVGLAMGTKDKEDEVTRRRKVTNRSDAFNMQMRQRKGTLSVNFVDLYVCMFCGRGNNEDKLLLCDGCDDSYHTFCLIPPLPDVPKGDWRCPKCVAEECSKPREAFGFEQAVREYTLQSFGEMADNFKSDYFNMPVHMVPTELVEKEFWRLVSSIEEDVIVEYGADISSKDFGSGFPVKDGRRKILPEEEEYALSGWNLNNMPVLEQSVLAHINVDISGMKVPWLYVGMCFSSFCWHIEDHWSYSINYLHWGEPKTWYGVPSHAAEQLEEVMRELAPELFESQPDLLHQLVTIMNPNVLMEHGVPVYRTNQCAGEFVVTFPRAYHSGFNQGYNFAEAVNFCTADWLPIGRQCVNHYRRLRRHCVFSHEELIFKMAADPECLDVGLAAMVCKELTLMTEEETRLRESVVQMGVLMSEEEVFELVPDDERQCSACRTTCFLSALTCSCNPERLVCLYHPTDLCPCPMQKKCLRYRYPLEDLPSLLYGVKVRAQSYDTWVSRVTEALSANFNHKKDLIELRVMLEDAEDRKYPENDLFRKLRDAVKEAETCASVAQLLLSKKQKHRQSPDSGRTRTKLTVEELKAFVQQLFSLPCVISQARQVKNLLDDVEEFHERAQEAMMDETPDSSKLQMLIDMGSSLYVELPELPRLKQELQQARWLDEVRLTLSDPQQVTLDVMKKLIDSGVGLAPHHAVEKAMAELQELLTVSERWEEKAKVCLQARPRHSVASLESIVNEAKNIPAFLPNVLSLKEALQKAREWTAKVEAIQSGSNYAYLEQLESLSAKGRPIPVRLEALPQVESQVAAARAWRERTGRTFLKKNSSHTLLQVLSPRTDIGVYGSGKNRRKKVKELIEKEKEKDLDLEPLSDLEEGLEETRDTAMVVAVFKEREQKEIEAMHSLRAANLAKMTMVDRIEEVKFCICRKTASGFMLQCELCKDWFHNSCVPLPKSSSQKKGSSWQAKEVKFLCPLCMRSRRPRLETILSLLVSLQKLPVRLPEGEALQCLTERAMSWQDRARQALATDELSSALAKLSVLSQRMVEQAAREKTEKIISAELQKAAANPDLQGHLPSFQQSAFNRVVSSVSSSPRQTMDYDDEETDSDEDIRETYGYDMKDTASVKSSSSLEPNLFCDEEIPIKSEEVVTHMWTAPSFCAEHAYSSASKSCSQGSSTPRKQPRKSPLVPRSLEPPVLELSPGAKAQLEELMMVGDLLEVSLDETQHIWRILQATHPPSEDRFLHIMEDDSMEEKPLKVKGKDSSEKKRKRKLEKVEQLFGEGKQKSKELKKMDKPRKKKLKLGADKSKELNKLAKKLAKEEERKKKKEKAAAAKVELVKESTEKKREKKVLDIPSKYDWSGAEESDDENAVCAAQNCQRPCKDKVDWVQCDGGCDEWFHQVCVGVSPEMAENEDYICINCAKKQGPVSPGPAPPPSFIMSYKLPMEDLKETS
Answers are plain numbers, in nM.

Solved cases below.
compound: O=C(O)c1ccnc(-n2nccc2OCc2ccccc2F)c1
observed-result: 270
--
compound: CC(Oc1ccnn1-c1cc(C(=O)O)ccn1)c1ccc(F)cc1 (stereo not drawn)
observed-result: 180
--
compound: O=C(O)c1ccnc(-n2nccc2OCc2cccc(F)c2)c1
observed-result: 430

Parameter requested: IC50. Apply to each item below.
1. COc1ccc(COc2ccnn2-c2cc(C(=O)O)ccn2)cc1
2. Cc1cnn(-c2cc(C(=O)O)ccn2)c1OCc1ccc(F)cc1
3. CCc1cnn(-c2cc(C(=O)O)ccn2)c1OCc1ccc(F)cc1
4. O=C(O)c1ccnc(-n2nccc2OCc2ccc(C3CC3)cc2)c1
5. O=C(O)c1ccnc(-n2nccc2OCc2ccc(Cl)cc2OCC2CC2)c1

[1700, 77, 29, 250, 75]
